# ASSAY_OVERVIEW: MTT cell viability / IC50 in growth media
# Assay type: cell-based, human
# CONDITIONS_USED: human, HepG2 cells; 10 μM, day 4
Would you kindly list viability at 4 day, 10 µM for each of these compounds?
API: value field is a number in %; no unit string.

Prompt: Name the recorded viability at 4 day, 10 µM for CNC(=O)c1cc(Oc2ccc(NC(=O)Nc3ccc(Cl)c(C(F)(F)F)c3)cc2)ccn1 [Sorafenib, sorafenib, reference compound] .
Response: 19.2

Prompt: Name the recorded viability at 4 day, 10 µM for N#Cc1c(NC(=O)c2cccc3ccccc23)sc2c1CCN(CC(=O)Nc1cccc(Br)c1)C2 .
Response: 1.1

Prompt: Name the recorded viability at 4 day, 10 µM for COc1ccc(C(=O)Nc2sc3c(c2C#N)CCCCC3)cc1OC .
Response: 15.9

Prompt: Name the recorded viability at 4 day, 10 µM for CNC(=O)c1cc(Oc2ccc(NC(=O)Nc3ccc(Cl)c(C(F)(F)F)c3)c(F)c2)ccn1 [Regorafenib, regorafenib, reference compound] .
Response: 13.4

---

Would you kindly list RBC for each of these molecules?
# ASSAY_OVERVIEW: In vivo toxicological study in rats: haematology
# Set-up: species or system rats of the Wistar strain
# CONDITIONS_USED: male, 300 mg/kg oral daily 7 d

Prompt: Name the recorded RBC for N#Cc1c(NC(=O)c2cccc3ccccc23)sc2c1CCN(C(=O)Nc1ccccc1OC(F)(F)F)C2 .
Response: 7.59 10^12/l

Prompt: Name the recorded RBC for COc1ccc(C(=O)Nc2sc3c(c2C#N)CCCCC3)cc1OC .
Response: 7.20 10^12/l

Prompt: Name the recorded RBC for N#Cc1c(NC(=O)c2cccc3ccccc23)sc2c1CCN(CC(=O)Nc1cccc(Br)c1)C2 .
Response: 7.87 10^12/l

Prompt: Name the recorded RBC for COc1ccccc1NC(=O)N1CCc2c(sc(NC(=O)c3cccc4ccccc34)c2C#N)C1 .
Response: 7.80 10^12/l

---

Would you kindly list RBC for each of these compounds?
# ASSAY_OVERVIEW: In vivo toxicological study in rats: haematology
# Design: species or system rats of the Wistar strain
# CONDITIONS_USED: female, 100 mg/kg oral daily 7 d

Prompt: Name the recorded RBC for COc1ccc(C(=O)Nc2sc3c(c2C#N)CCCCC3)cc1OC .
Response: 7.21 10^12/l

Prompt: Name the recorded RBC for N#Cc1c(NC(=O)c2cccc3ccccc23)sc2c1CCN(CC(=O)Nc1cccc(Br)c1)C2 .
Response: 7.36 10^12/l

Prompt: Name the recorded RBC for COc1ccccc1NC(=O)N1CCc2c(sc(NC(=O)c3cccc4ccccc34)c2C#N)C1 .
Response: 7.32 10^12/l

Prompt: Name the recorded RBC for N#Cc1c(NC(=O)c2cccc3ccccc23)sc2c1CCN(C(=O)Nc1ccccc1OC(F)(F)F)C2 .
Response: 7.66 10^12/l

---

Would you kindly list HCT for each of these compounds?
# ASSAY_OVERVIEW: In vivo toxicological study in rats: haematology
# Design: species or system rats of the Wistar strain
# CONDITIONS_USED: male, 100 mg/kg oral daily 7 d

Prompt: Name the recorded HCT for N#Cc1c(NC(=O)c2cccc3ccccc23)sc2c1CCN(CC(=O)Nc1cccc(Br)c1)C2 [PKL-B171] .
Response: 43.2%

Prompt: Name the recorded HCT for N#Cc1c(NC(=O)c2cccc3ccccc23)sc2c1CCN(C(=O)Nc1ccccc1OC(F)(F)F)C2 [PKL-A159] .
Response: 42.4%

Prompt: Name the recorded HCT for COc1ccccc1NC(=O)N1CCc2c(sc(NC(=O)c3cccc4ccccc34)c2C#N)C1 [PKL-A152] .
Response: 44.7%

Prompt: Name the recorded HCT for COc1ccc(C(=O)Nc2sc3c(c2C#N)CCCCC3)cc1OC [PKL-A135] .
Response: 43.2%

---

Would you kindly list HGB for each of these compounds?
# ASSAY_OVERVIEW: In vivo toxicological study in rats: haematology
# Set-up: species or system rats of the Wistar strain
# CONDITIONS_USED: male, 100 mg/kg oral daily 7 d
API: value field is a number in g/dL; no unit string.

Prompt: Name the recorded HGB for COc1ccc(C(=O)Nc2sc3c(c2C#N)CCCCC3)cc1OC .
Response: 14.6

Prompt: Name the recorded HGB for N#Cc1c(NC(=O)c2cccc3ccccc23)sc2c1CCN(CC(=O)Nc1cccc(Br)c1)C2 .
Response: 15.2

Prompt: Name the recorded HGB for COc1ccccc1NC(=O)N1CCc2c(sc(NC(=O)c3cccc4ccccc34)c2C#N)C1 .
Response: 15.1

Prompt: Name the recorded HGB for N#Cc1c(NC(=O)c2cccc3ccccc23)sc2c1CCN(C(=O)Nc1ccccc1OC(F)(F)F)C2 .
Response: 14.9

---

# ASSAY_OVERVIEW: In vivo toxicological study in rats: haematology
# Design: species or system rats of the Wistar strain
# CONDITIONS_USED: male, 30 mg/kg oral daily 7 d
READOUT_LABEL: HCT (%)
API: value field is a number in %; no unit string.

Prompt: Name the recorded HCT for N#Cc1c(NC(=O)c2cccc3ccccc23)sc2c1CCN(C(=O)Nc1ccccc1OC(F)(F)F)C2 [PKL-A159] .
Response: 40.9

Prompt: Name the recorded HCT for COc1ccc(C(=O)Nc2sc3c(c2C#N)CCCCC3)cc1OC [PKL-A135] .
Response: 44.3

Prompt: Name the recorded HCT for N#Cc1c(NC(=O)c2cccc3ccccc23)sc2c1CCN(CC(=O)Nc1cccc(Br)c1)C2 [PKL-B171] .
Response: 40.6

Prompt: Name the recorded HCT for COc1ccccc1NC(=O)N1CCc2c(sc(NC(=O)c3cccc4ccccc34)c2C#N)C1 [PKL-A152] .
Response: 46.3

---

Would you kindly list GRAN for each of these compounds?
# ASSAY_OVERVIEW: In vivo toxicological study in rats: haematology
# Design: species or system rats of the Wistar strain
# CONDITIONS_USED: male, 100 mg/kg oral daily 7 d

Prompt: Name the recorded GRAN for COc1ccc(C(=O)Nc2sc3c(c2C#N)CCCCC3)cc1OC .
Response: 1.17 10^9/l

Prompt: Name the recorded GRAN for N#Cc1c(NC(=O)c2cccc3ccccc23)sc2c1CCN(C(=O)Nc1ccccc1OC(F)(F)F)C2 .
Response: 1.43 10^9/l

Prompt: Name the recorded GRAN for COc1ccccc1NC(=O)N1CCc2c(sc(NC(=O)c3cccc4ccccc34)c2C#N)C1 .
Response: 1.47 10^9/l

Prompt: Name the recorded GRAN for N#Cc1c(NC(=O)c2cccc3ccccc23)sc2c1CCN(CC(=O)Nc1cccc(Br)c1)C2 .
Response: 1.30 10^9/l

---

Would you kindly list PLT for each of these molecules?
# ASSAY_OVERVIEW: In vivo toxicological study in rats: haematology
# Set-up: species or system rats of the Wistar strain
# CONDITIONS_USED: female, 30 mg/kg oral daily 7 d

Prompt: Name the recorded PLT for COc1ccc(C(=O)Nc2sc3c(c2C#N)CCCCC3)cc1OC [PKL-A135] .
Response: 1014 10^9/l

Prompt: Name the recorded PLT for N#Cc1c(NC(=O)c2cccc3ccccc23)sc2c1CCN(CC(=O)Nc1cccc(Br)c1)C2 [PKL-B171] .
Response: 933 10^9/l

Prompt: Name the recorded PLT for N#Cc1c(NC(=O)c2cccc3ccccc23)sc2c1CCN(C(=O)Nc1ccccc1OC(F)(F)F)C2 [PKL-A159] .
Response: 1028 10^9/l

Prompt: Name the recorded PLT for COc1ccccc1NC(=O)N1CCc2c(sc(NC(=O)c3cccc4ccccc34)c2C#N)C1 [PKL-A152] .
Response: 1089 10^9/l

---

# ASSAY_OVERVIEW: In vivo toxicological study in rats: haematology
# Parameters: species or system rats of the Wistar strain
# CONDITIONS_USED: male, 300 mg/kg oral daily 7 d
Would you kindly list PLT for each of these molecules?

Prompt: Name the recorded PLT for COc1ccc(C(=O)Nc2sc3c(c2C#N)CCCCC3)cc1OC .
Response: 924 10^9/l

Prompt: Name the recorded PLT for COc1ccccc1NC(=O)N1CCc2c(sc(NC(=O)c3cccc4ccccc34)c2C#N)C1 .
Response: 1046 10^9/l

Prompt: Name the recorded PLT for N#Cc1c(NC(=O)c2cccc3ccccc23)sc2c1CCN(CC(=O)Nc1cccc(Br)c1)C2 .
Response: 1115 10^9/l

Prompt: Name the recorded PLT for N#Cc1c(NC(=O)c2cccc3ccccc23)sc2c1CCN(C(=O)Nc1ccccc1OC(F)(F)F)C2 .
Response: 1200 10^9/l

---

# ASSAY_OVERVIEW: In vivo toxicological study in rats: haematology
# Set-up: species or system rats of the Wistar strain
# CONDITIONS_USED: female, 100 mg/kg oral daily 7 d
READOUT_LABEL: RDW % (%)
API: value field is a number in %; no unit string.

Prompt: Name the recorded RDW % for N#Cc1c(NC(=O)c2cccc3ccccc23)sc2c1CCN(C(=O)Nc1ccccc1OC(F)(F)F)C2 .
Response: 14.6

Prompt: Name the recorded RDW % for COc1ccc(C(=O)Nc2sc3c(c2C#N)CCCCC3)cc1OC .
Response: 13.7

Prompt: Name the recorded RDW % for COc1ccccc1NC(=O)N1CCc2c(sc(NC(=O)c3cccc4ccccc34)c2C#N)C1 .
Response: 14.0

Prompt: Name the recorded RDW % for N#Cc1c(NC(=O)c2cccc3ccccc23)sc2c1CCN(CC(=O)Nc1cccc(Br)c1)C2 .
Response: 14.1
